Molecular target: human 5-HT2B receptor (Homo sapiens (Human))
Sequence (P41595 whole entry): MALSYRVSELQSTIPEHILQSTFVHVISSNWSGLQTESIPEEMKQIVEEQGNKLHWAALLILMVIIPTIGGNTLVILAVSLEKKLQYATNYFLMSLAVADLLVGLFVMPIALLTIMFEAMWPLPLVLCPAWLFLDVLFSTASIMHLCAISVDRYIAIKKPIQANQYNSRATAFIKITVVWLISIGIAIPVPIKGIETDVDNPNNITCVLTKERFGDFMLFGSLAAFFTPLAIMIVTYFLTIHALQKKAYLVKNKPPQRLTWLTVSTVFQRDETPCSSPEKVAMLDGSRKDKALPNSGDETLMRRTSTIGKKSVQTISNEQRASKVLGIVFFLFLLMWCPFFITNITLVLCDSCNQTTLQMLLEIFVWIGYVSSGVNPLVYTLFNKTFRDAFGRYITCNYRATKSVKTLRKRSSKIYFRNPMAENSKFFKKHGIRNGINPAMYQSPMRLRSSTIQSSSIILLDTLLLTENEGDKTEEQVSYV
Experiment: 5-HT2B agonist activity assay (IP1 production, HTRF)
Settings: CHO cells, IP1 production
pEC50: −log10 of the molar value.

{"columns": ["compound", "targetSystem", "pEC50"],
 "data": [
  ["CCCN1CCC[C@@H]2CC3=C(CCCC3=O)C[C@H]21 [(Ia), reference compound]", "human 5-HT2B receptor (Homo sapiens (Human))", "< 5.22"]
]}

* * *

Each entry below carries its reported Emax.
Biological target: human D2 receptor (Homo sapiens (Human))
Sequence (P14416 whole entry): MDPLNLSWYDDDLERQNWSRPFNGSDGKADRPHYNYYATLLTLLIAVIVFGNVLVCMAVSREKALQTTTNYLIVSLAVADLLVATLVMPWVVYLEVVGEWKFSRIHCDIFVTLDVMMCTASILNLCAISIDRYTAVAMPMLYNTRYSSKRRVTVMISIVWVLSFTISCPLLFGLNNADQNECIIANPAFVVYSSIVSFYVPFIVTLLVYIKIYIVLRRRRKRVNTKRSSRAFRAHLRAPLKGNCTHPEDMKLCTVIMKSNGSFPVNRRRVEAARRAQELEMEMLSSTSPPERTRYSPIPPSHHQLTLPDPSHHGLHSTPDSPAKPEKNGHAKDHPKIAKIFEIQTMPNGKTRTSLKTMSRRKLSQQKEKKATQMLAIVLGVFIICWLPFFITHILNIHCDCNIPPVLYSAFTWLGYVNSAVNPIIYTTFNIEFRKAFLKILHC
Experiment: Dopamine D2 receptor agonism, calcium mobilization assay
Type: cell-based
Settings: normalized to 1 μM dopamine = 100%
measurementType: Emax (%)

{"columns": ["molecule", "targetSystem", "endpointValue"],
 "data": [
  ["CCCN1CCC[C@@H]2Cc3c(ccc(O)c3OS(=O)(=O)O)C[C@H]21 [(Id-iia)]", "human D2 receptor (Homo sapiens (Human))", 48],
  ["CCCN1CCC[C@@H]2Cc3c(ccc(O)c3O)C[C@H]21 [(I), reference compound]", "human D2 receptor (Homo sapiens (Human))", 91],
  ["CCCN1CCC[C@@H]2Cc3c(ccc4c3OCO4)C[C@H]21 [(Ib), reference compound]", "human D2 receptor (Homo sapiens (Human))", 100],
  ["CCCN1CCC[C@@H]2Cc3c(ccc(O)c3O[C@@H]3O[C@H](C(=O)O)[C@@H](O)[C@H](O)[C@H]3O)C[C@H]21 [(Id-ia)]", "human D2 receptor (Homo sapiens (Human))", 92]
]}

Ref: patent US10729710B2
